The values you see were collected from patent US8927500B2.

Ki listing for selected molecules.
# assay_system: MDMX (Homo sapiens, UniProt O15151)
# Sequence (O15151 1-125): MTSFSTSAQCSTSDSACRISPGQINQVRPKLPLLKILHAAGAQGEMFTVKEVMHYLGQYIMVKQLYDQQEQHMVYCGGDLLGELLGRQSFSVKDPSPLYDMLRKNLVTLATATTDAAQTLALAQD
# experimental_details: Competitive fluorescence polarization assay for MDMX
# Type: binding
# measurement_conditions: competitive FP assay, read-out: Ki (MDMX)
Where a SMILES comes first, the peptide text is derived from it. Bridges are numbered along the chain shown (N, C = ends). [ ]: non-standard residue; d: D form. R8 = C=CCCCCCC[C@@](C)(N)C(=O)O; Cba = N[C@@H](CC1CCC1)C(=O)O; S5 = C=CCCC[C@](C)(N)C(=O)O; Nle = CCCC[C@H](N)C(=O)O

Incoming: Annotate the molecule CCCC[C@H](NC(=O)[C@H](Cc1c[nH]c2ccccc12)NC(=O)[C@H](C)NC(=O)[C@]1(C)CCCC=CCCCCCC[C@@](C)(NC(=O)[C@H](Cc2ccccc2)NC(=O)[C@@H](NC(=O)[C@H](CCC(=O)O)NC(C)=O)[C@@H](C)O)C(=O)N[C@@H](C)C(=O)N[C@@H](Cc2ccc(O)cc2)C(=O)N[C@@H](Cc2c[nH]c3ccccc23)C(=O)N[C@@H](C)C(=O)N[C@@H](CCC(N)=O)C(=O)N[C@@H](CC2CCC2)C(=O)N1)C(=O)N[C@H](C)C(N)=O [compound 270] (Ac-ETF[R8]AYWAQ[Cba][S5]AW[Nle][dA]-NH2; staple 4-11) with its measured Ki.
Outgoing: 10 to 100 nM

Incoming: Annotate the molecule CCCC[C@H](NC(=O)[C@H](C)NC(=O)[C@H](C)NC(=O)[C@]1(C)CCCC=CCCCCCC[C@@](C)(NC(=O)[C@H](Cc2ccccc2)NC(=O)[C@H](C)NC(=O)[C@H](CC(C)C)NC(C)=O)C(=O)N[C@@H](CCC(=O)O)C(=O)N[C@@H](Cc2ccc(O)cc2)C(=O)N[C@@H](Cc2c[nH]c3ccccc23)C(=O)N[C@@H](C)C(=O)N[C@@H](CCC(N)=O)C(=O)N[C@@H](CC(C)C)C(=O)N1)C(=O)N[C@@H](C)C(N)=O [compound 369] (Ac-LAF[R8]EYWAQL[S5]AA[Nle]A-NH2; staple 4-11) with its measured Ki.
Outgoing: 10 to 100 nM

----------
# assay_system: MDM2 (Homo sapiens)
# Sequence (Q00987 1-125): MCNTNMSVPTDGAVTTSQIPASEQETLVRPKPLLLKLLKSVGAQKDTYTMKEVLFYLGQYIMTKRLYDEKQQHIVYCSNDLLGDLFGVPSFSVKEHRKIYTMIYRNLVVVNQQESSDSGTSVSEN
# experimental_details: Competitive fluorescence polarization assay for MDM2
# Type: binding
# measurement_conditions: competitive FP assay, MDM2; read-out: IC50 (MDM2)
measurement_kind: IC50

Incoming: Annotate the compound CC[C@H](C)[C@H](NC(=O)[C@H](C)NC(=O)[C@H](C)NC(=O)[C@]1(C)CCCC=CCCCCCC[C@@](C)(NC(=O)[C@H](Cc2ccccc2)NC(=O)[C@@H](NC(=O)[C@H](CCC(=O)O)NC(C)=O)[C@@H](C)O)C(=O)N[C@@H](CCC(=O)O)C(=O)N[C@@H](Cc2c[nH]cn2)C(=O)N[C@@H](Cc2c[nH]c3ccccc23)C(=O)N[C@@H](C)C(=O)N[C@@H](CCC(N)=O)C(=O)N[C@@H](CC(C)C)C(=O)N1)C(=O)N[C@H](C)C(N)=O (single isomer, unassigned) with its measured IC50.
Outgoing: < 0.01 µM
